# MEASUREMENT TARGET: human calcium-sensing receptor (CaSR) (Homo sapiens)
# Construct: host or cells: HEK293
# Sequence (P41180 20-1078): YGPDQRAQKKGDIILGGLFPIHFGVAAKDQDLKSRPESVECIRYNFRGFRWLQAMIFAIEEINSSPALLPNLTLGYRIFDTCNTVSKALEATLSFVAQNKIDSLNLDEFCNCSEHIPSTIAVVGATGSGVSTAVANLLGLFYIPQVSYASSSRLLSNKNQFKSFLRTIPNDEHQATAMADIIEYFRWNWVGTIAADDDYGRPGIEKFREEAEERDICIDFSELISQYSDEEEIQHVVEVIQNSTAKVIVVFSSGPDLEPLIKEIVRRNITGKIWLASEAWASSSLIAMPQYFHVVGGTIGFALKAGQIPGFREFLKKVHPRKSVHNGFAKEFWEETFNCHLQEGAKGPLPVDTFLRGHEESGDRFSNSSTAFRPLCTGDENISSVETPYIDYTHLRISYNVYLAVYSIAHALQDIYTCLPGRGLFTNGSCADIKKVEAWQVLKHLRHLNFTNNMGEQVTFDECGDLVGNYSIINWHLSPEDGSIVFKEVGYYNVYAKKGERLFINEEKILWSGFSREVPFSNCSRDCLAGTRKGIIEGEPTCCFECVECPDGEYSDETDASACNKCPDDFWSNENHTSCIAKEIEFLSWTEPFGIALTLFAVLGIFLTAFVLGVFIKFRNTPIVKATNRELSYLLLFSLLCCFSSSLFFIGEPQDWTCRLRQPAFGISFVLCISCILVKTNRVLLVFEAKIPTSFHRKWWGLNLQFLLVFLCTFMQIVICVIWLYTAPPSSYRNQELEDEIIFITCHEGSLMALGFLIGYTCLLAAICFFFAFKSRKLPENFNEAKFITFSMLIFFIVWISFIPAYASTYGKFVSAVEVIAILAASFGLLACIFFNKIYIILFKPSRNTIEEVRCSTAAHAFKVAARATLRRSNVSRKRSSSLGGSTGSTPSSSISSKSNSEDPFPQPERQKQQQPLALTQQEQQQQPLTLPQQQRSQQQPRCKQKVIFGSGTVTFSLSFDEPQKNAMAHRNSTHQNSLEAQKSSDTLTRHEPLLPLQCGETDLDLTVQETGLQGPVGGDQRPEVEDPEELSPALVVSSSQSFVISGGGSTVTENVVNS
# ASSAY DETAILS: Agonist activity on human calcium-sensing receptor (IP-One HTRF in stably transfected HEK293/CaSR cells)
# Type: cell-based
# RUN PARAMETERS: HEK293/CaSR cells, IP-One production, 60 min at 37° C., CaCl2 1.2 mM; read-out: EC50 for calcium-sensing receptor
Square brackets hold non-standard residues; d marks the D form. Peptide text beside a SMILES is read from it. * marks the point of attachment. Cys(free,S-linked) = N[C@@H](CS*)C(=O)O; dAbu = CC[C@@H](N)C(=O)O
# maps each entry to its EC50
Numeric only. Scale: µM

A selection of reference data follows.
In: Suppose we examine the compound CC(=O)N[C@H](CSSC[C@H](N)C(=O)O)C(=O)N[C@H](Cc1c[nH]c2ccccc12)C(=O)N[C@H](CCCNC(=N)N)C(=O)N[C@H](CCCNC(=N)N)C(=O)N[C@H](CCCNC(=N)N)C(=O)NCC(=O)N[C@H](CCCNC(=N)N)C(N)=O [Compound 9, Ac-c(C)-w-r-r-r-G-r-NH2] (Ac-[dC](Cys(free,S-linked))[dW][dR][dR][dR]G[dR]-NH2) ; what EC50 value has been reported?
Out: 3.16

In: EC50 for CC[C@@H](NC(=O)[C@@H](CCCNC(=N)N)NC(=O)[C@@H](CCCNC(=N)N)NC(=O)[C@@H](CSSC[C@H](N)C(=O)O)NC(C)=O)C(=O)N[C@H](CCCNC(=N)N)C(=O)N[C@H](CO)C(=O)N[C@H](CCCNC(=N)N)C(N)=O [Compound 31, Ac-c(C)-r-r-(D-Abu)-r-s-r-NH2] (Ac-[dC](Cys(free,S-linked))[dR][dR][dAbu][dR][dS][dR]-NH2) ?
Out: 5.93

Let us examine a further case.
In: What measured EC50 goes with CC(=O)N[C@H](CSSC[C@H](N)C(=O)O)C(=O)N[C@H](CCCNC(=N)N)C(=O)N[C@H](CCCNC(=N)N)C(=O)N[C@@H](C(=O)N[C@H](CCCNC(=N)N)C(=O)N[C@H](CO)C(=O)N[C@H](CCCNC(=N)N)C(N)=O)C(C)C [Compound 29, Ac-c(C)-r-r-v-r-s-r-NH2] (Ac-[dC](Cys(free,S-linked))[dR][dR][dV][dR][dS][dR]-NH2) ?
Out: 9.8
